- system: Replicase polyprotein 1ab (Severe acute respiratory syndrome coronavirus 2)
- procedure summary: Inhibition of SARS-CoV-2 MPro using E(EDAS)TSAVLQSGFRK(DABCYL) as substrate at 100 uM by fluorescence based analysis relative to control
Task for the reader: assign each of the following compounds its reported inhibition.
One number for each entry, in %.

Clc1cc(Nc2ncnc3ccccc23)ccc1OCc1cccc(Br)c1
82
O=C(Nc1ccccc1F)c1ccc(COc2ccc(Nc3ncnc4ccccc34)cc2Cl)cc1
66.4
O=C(Nc1ccccc1)c1ccc(COc2ccc(Nc3ncnc4ccccc34)cc2Cl)cc1
66.3
Clc1cc(Nc2ncnc3ccccc23)ccc1OCc1ccccc1
74.6
CS(=O)(=O)CCNCc1ccc(-c2ccc3ncnc(Nc4ccc(OCc5cccc(F)c5)c(Cl)c4)c3c2)o1 [LAPATINIB]
97.1
O=C(Nc1cccc(I)c1)c1cccc(COc2ccc(Nc3ncnc4ccccc34)cc2Cl)c1
55.7
COc1cccc(NC(=O)c2ccc(COc3ccc(Nc4ncnc5ccccc45)cc3Cl)cc2)c1
49.3
O=C(Nc1ccc(Cl)cc1)c1ccc(COc2ccc(Nc3ncnc4ccccc34)cc2Cl)cc1
73.2

Could you tell me inhibition for each of these compounds? They are listed below.
1. O=C(Nc1ccc(Cl)cc1)c1cccc(COc2ccc(Nc3ncnc4ccccc34)cc2Cl)c1
2. O=C(Nc1ccccc1F)c1cccc(COc2ccc(Nc3ncnc4ccccc34)cc2Cl)c1
3. O=C(Nc1ccccc1Cl)c1cccc(COc2ccc(Nc3ncnc4ccccc34)cc2Cl)c1
4. O=C(Nc1ccccc1)c1cccc(COc2ccc(Nc3ncnc4ccccc34)cc2Cl)c1
5. O=C(Nc1ccccc1Cl)c1ccc(COc2ccc(Nc3ncnc4ccccc34)cc2Cl)cc1
6. Fc1cccc(COc2ccc(Nc3ncnc4ccccc34)cc2Cl)c1
7. O=C(Nc1cccc(C(F)(F)F)c1)c1ccc(COc2ccc(Nc3ncnc4ccccc34)cc2Cl)cc1
8. O=C(Nc1cccc(I)c1)c1ccc(COc2ccc(Nc3ncnc4ccccc34)cc2Cl)cc1

A.
[69.5, 68.6, 53, 98, 30.8, 82.6, 55.7, 87.7]

---

- procedure summary: Cytotoxicity against African green monkey Vero E6 cells assessed as cell viability at 50 uM incubated for 48 hrs by CellTiter96 assay relative to control
- Format: toxicity, cell-based, Vero C1008
- condition summary: chlorocebus sabaeus, read-out: Activity
metric: viability at 48 h, 50 µM (%)
One number for each entry, in %.

Some entries whose results are on file:
Clc1cc(Nc2ncnc3ccccc23)ccc1OCc1cccc(Br)c1
28.1
O=C(Nc1ccccc1F)c1ccc(COc2ccc(Nc3ncnc4ccccc34)cc2Cl)cc1
0
O=C(Nc1ccc(Cl)cc1)c1cccc(COc2ccc(Nc3ncnc4ccccc34)cc2Cl)c1
9.39
O=C(Nc1ccccc1)c1ccc(COc2ccc(Nc3ncnc4ccccc34)cc2Cl)cc1
8.05
COc1cccc(NC(=O)c2cccc(COc3ccc(Nc4ncnc5ccccc45)cc3Cl)c2)c1
8.66
O=C(Nc1ccc(Cl)cc1)c1ccc(COc2ccc(Nc3ncnc4ccccc34)cc2Cl)cc1
0

Could you tell me viability at 48 h, 50 µM for each of these molecules? They are listed below.
1. Clc1cc(Nc2ncnc3ccccc23)ccc1OCc1ccccc1
2. O=C(Nc1cccc(C(F)(F)F)c1)c1ccc(COc2ccc(Nc3ncnc4ccccc34)cc2Cl)cc1

A.
1. 49.3
2. 17.3

---

- procedure summary: Cytotoxicity against African green monkey Vero E6 cells assessed as cell viability at 50 uM incubated for 48 hrs by CellTiter96 assay relative to control
- Assay type: toxicity, cell-based, Vero C1008
- condition summary: chlorocebus sabaeus, read-out: Activity
metric: viability at 48 h, 50 µM (%)
Give bare numbers, in %.

Some entries whose results are on file:
O=C(Nc1cccc(C(F)(F)F)c1)c1cccc(COc2ccc(Nc3ncnc4ccccc34)cc2Cl)c1
26.6
O=C(Nc1ccccc1)c1cccc(COc2ccc(Nc3ncnc4ccccc34)cc2Cl)c1
1
COc1cccc(NC(=O)c2ccc(COc3ccc(Nc4ncnc5ccccc45)cc3Cl)cc2)c1
22.6
O=C(Nc1cccc(I)c1)c1cccc(COc2ccc(Nc3ncnc4ccccc34)cc2Cl)c1
21

# viability at 48 h, 50 µM of Fc1cccc(COc2ccc(Nc3ncnc4ccccc34)cc2Cl)c1 = 44.8

---

Task for the reader: assign each of the following compounds its reported viability at 48 h, 50 µM.
- procedure summary: Cytotoxicity against African green monkey Vero E6 cells assessed as cell viability at 50 uM incubated for 48 hrs by CellTiter96 assay relative to control
- Format: toxicity, cell-based, Vero C1008
- condition summary: chlorocebus sabaeus, read-out: Activity
Answers are plain numbers, in %.

Some entries whose results are on file:
CS(=O)(=O)CCNCc1ccc(-c2ccc3ncnc(Nc4ccc(OCc5cccc(F)c5)c(Cl)c4)c3c2)o1 [LAPATINIB]
71.1
O=C(Nc1ccccc1Cl)c1ccc(COc2ccc(Nc3ncnc4ccccc34)cc2Cl)cc1
3.64
O=C(Nc1ccccc1Cl)c1cccc(COc2ccc(Nc3ncnc4ccccc34)cc2Cl)c1
38

Could you tell me viability at 48 h, 50 µM for each of these compounds? They are listed below.
1. O=C(Nc1cccc(I)c1)c1ccc(COc2ccc(Nc3ncnc4ccccc34)cc2Cl)cc1
2. O=C(Nc1ccccc1F)c1cccc(COc2ccc(Nc3ncnc4ccccc34)cc2Cl)c1

A.
0
13.6
